Please provide measured WBC for the entries that follow.
# Species on record: Rattus norvegicus
# measurement protocol: Open TG-GATES - Regimen: Daily Repeat
# Type: toxicity, organism-based, Sprague-Dawley
# Set-up: regimen Daily Repeat, gender Male, age 6 weeks
# conditions: in vivo, po, 1000 mg/kg, […], tissue Blood, route gavage, dose level High, time 28 day
One number for each entry, in x10_2/uL.

Below, 3 compounds whose answers are already recorded.
[
  {
    "compound": "O=C(N[C@H](CO)[C@H](O)c1ccc([N+](=O)[O-])cc1)C(Cl)Cl",
    "WBC [x10_2/uL]": 78.6
  },
  {
    "compound": "O=C(O)c1cccnc1",
    "WBC [x10_2/uL]": 127.6
  },
  {
    "compound": "CC(C)(S)[C@@H](N)C(=O)O",
    "WBC [x10_2/uL]": 153.3
  }
]

## Task Indicate its recorded WBC; the compound in question is CCN1CCCC1CNC(=O)c1cc(S(N)(=O)=O)ccc1OC (centres undefined) [SULPIRIDE]
## Result 133.5

###

Consider the following molecules; for each one, report its Hb.
# Species: Rattus norvegicus
# measurement protocol: Open TG-GATES - Regimen: Daily Repeat
# Type: toxicity, organism-based, Sprague-Dawley
# Design: regimen Daily Repeat, gender Male, age 6 weeks
# conditions: in vivo, po, 0 mg/kg, […], tissue Blood, route gavage, dose level Control, time 7 day
One number for each entry, in g/dL.

[
  {
    "molecule": "Oc1ncnc2[nH]ncc12",
    "quantity": "Hb",
    "value measured": 15
  },
  {
    "molecule": "CCSCC[C@H](N)C(=O)O",
    "quantity": "Hb",
    "value measured": 14
  },
  {
    "molecule": "C[C@]12CCC(=O)C=C1CC[C@@H]1[C@@H]2CC[C@@]2(C)[C@H]1CC[C@]2(C)O",
    "quantity": "Hb",
    "value measured": 13.4
  },
  {
    "molecule": "Nc1nc(N)c2nc(-c3ccccc3)c(N)nc2n1",
    "quantity": "Hb",
    "value measured": 13.9
  }
]

Here's the next entry for you.
## Task Give reported Hb value for CC(=N)S [THIOACETAMIDE]
## Result 13.8

###

For each entry below, report its RBC value.
# Species on record: Rattus norvegicus
# measurement protocol: Open TG-GATES - Regimen: Daily Repeat
# Type: toxicity, organism-based, Sprague-Dawley
# Design: regimen Daily Repeat, gender Male, age 6 weeks
# conditions: in vivo, po, 0 mg/kg, 72 h, tissue Blood, route gavage, dose level Control, time 3 day
One number for each entry, in x10_4/ul.

Worked examples, 6 compounds total:
[
  {
    "compound": "C[C@](N)(Cc1ccc(O)c(O)c1)C(=O)O",
    "RBC, x10_4/ul": 609
  },
  {
    "compound": "CCc1oc2ccccc2c1C(=O)c1cc(I)c(O)c(I)c1",
    "RBC, x10_4/ul": 658.4
  },
  {
    "compound": "CC(C)(S)[C@@H](N)C(=O)O",
    "RBC, x10_4/ul": 648.8
  },
  {
    "compound": "Oc1ncnc2[nH]ncc12",
    "RBC, x10_4/ul": 623.2
  },
  {
    "compound": "CN1C(=O)OC(C)(C)C1=O",
    "RBC, x10_4/ul": 639.2
  },
  {
    "compound": "CCC(C)(C)C(=O)O[C@H]1C[C@@H](C)C=C2C=C[C@H](C)[C@H](CC[C@@H]3C[C@@H](O)CC(=O)O3)[C@H]21",
    "RBC, x10_4/ul": 621.6
  }
]

Parameter requested: RBC. Apply to each item below.
1. O=C(N[C@H](CO)[C@H](O)c1ccc([N+](=O)[O-])cc1)C(Cl)Cl
2. Nc1nc(N)c2nc(-c3ccccc3)c(N)nc2n1
3. O=C(O)c1cccnc1

## Result
[611.2, 664.4, 612.4]

Hi, could you look up RBC for each item in my list?
1. CCN1CCCC1CNC(=O)c1cc(S(N)(=O)=O)ccc1OC (stereo unspecified) [SULPIRIDE]
2. C[C@]12CCC(=O)C=C1CC[C@@H]1[C@@H]2CC[C@@]2(C)[C@H]1CC[C@]2(C)O

## Result
650.4
619.6
